Target: CaSho1
Experiment: SPOT peptide array binding signal intensity (averaged, normalized) (arbitrary units (background-subtracted, floor 0; scale differs between SH3 domains)); higher = stronger binding of the SH3 domain to the peptide
Output 1 (yes) for SPOT peptide array binding signal intensity not less than 200; output 0 (no) otherwise.

Hello, I need to know if `TPTSGPPLLPPRNTM` has measured SPOT peptide array binding signal intensity not below 200. Thanks!
0 (no)

Hello, I need to know if `RKRAPTPPAPSRSEK` has measured SPOT peptide array binding signal intensity not below 200. Thanks!
0 (no)

Hello, I need to know if `RFKRHRLEFPFNESE` has measured SPOT peptide array binding signal intensity not below 200. Thanks!
1 (yes)

Hello, I need to know if `NSVPIMPTLPPRPYI` has measured SPOT peptide array binding signal intensity not below 200. Thanks!
1 (yes)

Hello, I need to know if `RLSRLLLSLPPESFT` has measured SPOT peptide array binding signal intensity not below 200. Thanks!
1 (yes)

Hello, I need to know if `PALPSLPPPPLLNVD` has measured SPOT peptide array binding signal intensity not below 200. Thanks!
0 (no)

Hello, I need to know if `NRPAIRIPSLKKPAL` has measured SPOT peptide array binding signal intensity not below 200. Thanks!
1 (yes)
